Values from patent US20150274820A1

Molecular target: T1, recombinant human VEGF165 (human, UniProt P15692 27-191)
T1 construct: mature; Isoform VEGF165 of the entry; also called hVEGF165; hVEGF
T1 sequence (P15692 other isoform, or with tags, fused parts or gaps): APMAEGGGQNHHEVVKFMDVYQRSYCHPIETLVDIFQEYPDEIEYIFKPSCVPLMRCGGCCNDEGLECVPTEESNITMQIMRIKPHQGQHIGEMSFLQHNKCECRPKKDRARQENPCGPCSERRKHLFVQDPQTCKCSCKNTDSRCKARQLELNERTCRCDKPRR
Assay: Biacore SPR, VEGF immobilized, pH 5
Procedure: In this example, the Biacore-binding ability of scFvs was tested and the binding affinity was measured using the exemplary surface plasmon resonance method with BIAcore™-T100. […] The apparent dissociation rate constant (kd), the apparent association rate constant (kₐ) and the apparent dissociation equilibrium constant (KD) were calculated using one-to-one Langmuir binding model with BIAcore T100 evaluation Software version 1.1.
Listed next: entries and their corresponding koff.
State the answer as a number, implicitly in s⁻¹.

| Binder | Unit Abbreviation | koff |
| --- | --- | --- |
| 511-min (scFv, VL and VH tied by name; also called Protein Nr) scFv: EIVMTQSPSTLSASVGDRVIITCQASQSINIWCSWYQQKPGKAPKLLIYRASTLASGVPSRFSGSGSGAEFTLTISSLQPDDFATYYCQANYAYSAGYGAAFGQGTKLTVLGGGGGSGGGGSGGGGSGGGGSEVQLVESGGGLVQPGGSLRLSCAASGFSLNTYYMNWVRQAPGKGLEWVSIIAPDDTTYYASWAKSRFTISRDNSKNTLYLQMNSLRAEDTAVYYCAKSGDTTAWGADIWGQGTLVTVSS | s⁻¹ | 0.00128 |

Please give measured koff of the following entry: 509-min (scFv, VL and VH tied by name; also called Protein Nr; 854) scFv: EIVMTQSPSTLSASVGDRVIITCQASQNIRIWLSWYQQKPGKAPKLLIYKASTLESGVPSRFSGSGSGAEFTLTISSLQPDDFATYYCQNNAHYSTNGGTFGQGTKLTVLGGGGGSGGGGSGGGGSGGGGSEVQLVESGGGLVQPGGSLRLSCAASGFSLSSYYMCWVRQAPGKGLEWVSCLDYVGDTDYASWAKGRFTISRDNSKNTLYLQMNSLRAEDTAVYYCAKTDDSRGWGLNIWGQGTLVTVSS
0.00114

Please give measured koff of the following entry: 610-min (scFv, VL and VH tied by name; also called Protein Nr) scFv: EIVMTQSPSTLSASVGDRVIITCQASQSISSWLSWYQQKPGKAPKLLIYQASTLASGVPSRFSGSGSGAEFTLTISSLQPDDFATYYCQNNYGFRSYGGAFGQGTKLTVLGGGGGSGGGGSGGGGSGGGGSEVQLVESGGGLVQPGGSLRLSCAASGIDFSGAYYMGWVRQAPGKGLEWVSYIDYDGDRYYASWAKGRFTISRDNSKNTLYLQMNSLRAEDTAVYYCAKSDYSSGWGTDIWGQGTLVTVSS
0.00265
